Documented kon across a set of binders
target-entity: T1, human transferrin receptor 1 (human, UniProt P02786 89-760, limits assumed)
T1 construct: also called hTfR1; huTfR1
T1 sequence (P02786 89-760 limits assumed): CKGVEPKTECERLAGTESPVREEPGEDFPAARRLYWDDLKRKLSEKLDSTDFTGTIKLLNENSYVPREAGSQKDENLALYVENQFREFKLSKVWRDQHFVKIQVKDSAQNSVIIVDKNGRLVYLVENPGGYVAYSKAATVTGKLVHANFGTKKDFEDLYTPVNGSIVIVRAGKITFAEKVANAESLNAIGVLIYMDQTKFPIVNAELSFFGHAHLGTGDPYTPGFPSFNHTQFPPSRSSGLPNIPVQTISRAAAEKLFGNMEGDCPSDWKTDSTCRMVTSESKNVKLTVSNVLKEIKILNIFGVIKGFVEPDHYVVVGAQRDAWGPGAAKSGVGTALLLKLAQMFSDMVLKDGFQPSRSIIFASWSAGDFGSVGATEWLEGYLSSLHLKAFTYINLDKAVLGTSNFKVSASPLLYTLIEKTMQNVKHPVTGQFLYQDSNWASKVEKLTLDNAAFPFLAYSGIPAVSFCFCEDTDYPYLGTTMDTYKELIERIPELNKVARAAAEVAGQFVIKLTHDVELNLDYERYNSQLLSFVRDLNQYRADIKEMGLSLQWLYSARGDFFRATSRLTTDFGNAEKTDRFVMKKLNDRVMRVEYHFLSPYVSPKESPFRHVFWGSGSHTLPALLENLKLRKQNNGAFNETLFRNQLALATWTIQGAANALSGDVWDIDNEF
test-summary: Carterra LSA SPR array, IgG captured on anti-IgG lawn, hTfR1 as analyte, 25 C, 1:1 Langmuir fit
Method: Selected anti-TfR1 antibodies were tested for their binding affinity to human TfR1 for measurement of Ka (association rate constant), Kd (dissociation rate constant), and KD (affinity). […] The binding experiment was performed on Carterra LSA at 25 C. An anti-mouse IgG and anti-human IgG antibody “lawn” was prepared on a HC30M chip by amine coupling. 59 IgGs (58 mouse mAbs and 1 human mAb) were captured on the chip. […]
Reply with just the number (in M⁻¹ s⁻¹).

Example entries and their recorded answers appear below.
{"columns": ["binder", "kon (M⁻¹ s⁻¹)"],
 "data": [
  ["3-M12 (antibody, V domains shown, Tested as a mouse monoclonal IgG) VH: DVQLQESGPGLVKPSQSLSLTCSVTGYSITSGYYWNWIRQFPGNKLEWMGYITFDGANNYNPSLKNRISITRDTSKNQFFLKLTSVTTEDTATYYCTRSSYDYDVLDYWGQGTTLTVSS VL: DIQMTQTTSSLSASLGDRVTISCRASQDISNFLNWYQQRPDGTVKLLIYYTSRLHSGVPSRFSGSGSGTDFSLTVSNLEQEDIATYFCQQGHTLPYTFGGGTKLEIK", 166000],
  ["8-D15 (antibody, V domains shown, Tested as a mouse monoclonal IgG) VH: QVQLKESGPGLVAPSQSLSITCTVSGFSLTSYAITWVRQSPGKGLEWLGLIWTGGGTNYNSALKSRLSISKDNSKSQVFLKMNSLQTDDTARYYCARIYDGYYRYFDVWGTGTTVTVSS VL: RIVLTQTPKFLLVSAGDRVTMTCKASQSVSNDVAWYQQKPGQSPKLLIYYASNRYTGVPDRFTGSGYGTDFTFTISTVQAEDLAVYFCQQDYSSPWTFGGGTKLEIK", 31300]
]}

Then there is this binder:
Query 9-D4 (antibody, V domains shown, Tested as a mouse monoclonal IgG; also called 9-D04) VH: QVQLQQSGTELARPGASVKLSCKASGFTFTDYGINWVKQRTGQGLEWIGEIYPSSGNSYYNEKFKAKATLTADKSSSTAYMELRSLTSEDSAVYFCARSTYYGSPIDYWGQGTTLTVSS VL: DIVMTQSHKFMSTPVGDRVSITCKASQDVDTTVAWYQQKPGQSPKLLIYWASTRQIGVPDRFTGSGSGTDFTLTISNVQSEDLADYFCQQYSTYPLTFGGGTKLEIK yields kon of 42000
